# testedTarget: hepatic lipase (HL) (Homo sapiens)
# Construct: made in house; host or cells: COS cells (conditioned medium, partially purified)
# Sequence (P11150 23-499, species assumed): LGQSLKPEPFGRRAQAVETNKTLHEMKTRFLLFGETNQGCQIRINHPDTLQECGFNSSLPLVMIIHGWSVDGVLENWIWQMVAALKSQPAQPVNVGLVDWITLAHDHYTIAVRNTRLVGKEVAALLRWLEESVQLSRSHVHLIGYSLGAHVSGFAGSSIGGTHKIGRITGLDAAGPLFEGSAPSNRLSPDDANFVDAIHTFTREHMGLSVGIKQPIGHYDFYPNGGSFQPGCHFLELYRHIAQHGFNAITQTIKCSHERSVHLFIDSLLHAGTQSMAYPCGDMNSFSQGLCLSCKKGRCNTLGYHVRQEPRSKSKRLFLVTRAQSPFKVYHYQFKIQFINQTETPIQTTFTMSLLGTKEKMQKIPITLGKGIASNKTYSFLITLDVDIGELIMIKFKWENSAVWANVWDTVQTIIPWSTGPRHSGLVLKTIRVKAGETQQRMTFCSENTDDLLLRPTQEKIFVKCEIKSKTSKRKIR
# experimentalProtocol: Hepatic lipase (HL) enzymatic assay, fluorescent substrate A10070 in DMPG vesicles
# Format: biochemical
# details: HL partially purified from conditioned media of COS cells; compound preincubated 30 min at 37° C; read-out: HL IC50
pIC50: −log10 of the molar value.
Entries and their measured pIC50 follow.
metric: pIC50

molecule: CS(=O)(=O)C(c1nnc(CC2SC(=O)NC2=O)o1)c1nc2ccc(-c3ccc(C(=O)OCc4ccccc4)cc3)cc2s1 (centres unmarked)
testResult: > 8.00

molecule: COC(=O)NCCS(=O)(=O)C(c1nnc(CNS(N)(=O)=O)o1)c1nc2ccc(-c3ccccc3)cc2s1 (centres unmarked)
testResult: > 8.00

molecule: NS(=O)(=O)NCc1nnc(C(c2nc3ccc(-c4cccc(Cl)c4)cc3s2)S(=O)(=O)Cc2ccccc2)o1 (centres unmarked)
testResult: > 8.00

molecule: COCCS(=O)(=O)C(c1nnc(CNS(=O)(=O)NC(=O)OC(C)(C)C)o1)c1nc2ccc(-c3cnn(C)c3)cc2s1 (centres unmarked)
testResult: < 4.60

molecule: NS(=O)(=O)NCc1nnc(C(c2nc3ccc(-c4ccc(Cl)c(F)c4)cc3s2)S(=O)(=O)Cc2ccccc2)o1 (centres unmarked)
testResult: > 8.00
